From: patent US20230233569A1

- ASSAY_TARGET: KRAS G12C (Homo sapiens, UniProt P01116+P62937, G12C)
- Sequence (P01116 1-169 isoform P01116-2 G12C limits assumed): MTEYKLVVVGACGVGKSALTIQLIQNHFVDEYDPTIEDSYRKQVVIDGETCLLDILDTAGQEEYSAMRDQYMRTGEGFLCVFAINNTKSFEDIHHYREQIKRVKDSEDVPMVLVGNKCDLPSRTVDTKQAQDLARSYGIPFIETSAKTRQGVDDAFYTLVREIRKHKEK
- Sequence (P62937 whole entry): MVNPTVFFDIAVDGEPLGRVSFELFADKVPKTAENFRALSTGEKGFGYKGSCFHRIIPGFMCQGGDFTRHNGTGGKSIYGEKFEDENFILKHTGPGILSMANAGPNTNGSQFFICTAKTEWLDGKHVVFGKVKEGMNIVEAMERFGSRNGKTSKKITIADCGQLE
- ASSAY_COMMENT: Ras-Raf disruption / FRET / MOA assay (BRAF RBD)
- Format: biochemical
- CONDITION_SET: Ras-Raf disruption, with Cyclophilin A; read-out: KRAS G12C FRET data IC50
pIC50: −log10 of the molar value.
PARAMETER_MEASURED: pIC50

Request: # return recorded pIC50 for input CCn1c(-c2cccnc2[C@H](C)OC)c2c3cc(ccc31)-c1csc(n1)C[C@H](NC(=O)[C@H](C(C)C)N(C)C(=O)N1CC[C@H](N(C)C(=O)[C@H]3CN3)C1)C(=O)N1CCC[C@H](N1)C(=O)OCC(C)(C)C2 (atropisomer, axis not shown)
Response: 6.00 to 7.00

Request: # return recorded pIC50 for input `CCn1c(-c2cccnc2[C@H](C)OC)c2c3cc(ccc31)-c1cc(O)cc(c1)C[C@H](NC(=O)[C@@H](COC1CN(C(=O)[C@H]3CN3)C1)C(C)C)C(=O)N1CCC[C@H](N1)C(=O)OCC(C)(C)C2`
Response: > 8.00

Request: # return recorded pIC50 for input `CCn1c(-c2cccnc2[C@H](C)OC)c2c3cc(ccc31)-c1cc(O)cc(c1)C[C@H](NC(=O)[C@H](C1CCCC1)N(C)C(=O)[C@H]1CCN(C[C@H]3CN3)C1=O)C(=O)N1CCC[C@H](N1)C(=O)OCC(C)(C)C2`
Response: > 8.00

Request: # return recorded pIC50 for input CCn1c(-c2cccnc2[C@H](C)OC)c2c3cc(ccc31)-c1cc(O)cc(c1)C[C@H](NC(=O)[C@H](C(C)C)N(C)C(=O)N1CC[C@H](N(C)C(=O)[C@H]3CN3)C1)C(=O)N1CCC[C@H](N1)C(=O)OCC(C)(C)C2 (atropisomer, axis not shown)
Response: 7.00 to 8.00
